Each entry below lists one item and its recorded T½ Max (seconds), coagulation of human plasma value.
biological target: Innovin, lyophilized recombinant human tissue factor combined with phospholipids (human, UniProt P13726 33-295, limits assumed); test: cell-based or functional assay; also: test concentration or dose not given here
API: value field is a number in s; no unit string.

[[record]]
binder = "M1589 (antibody, V domains shown, complete MAb; FR4 is its own entry; also called H187/L3) VH: EVQLVQSGAEVKKPGESLRISCKGSGYTFGPHWIEWVRQMPGKGLEWMGDILPGTGYTNYSPSFQGHVTISADKSISTAYLQWSSLKASDTAMYYCARSGYYGNSGFAYWGQGTLVTVSS VL: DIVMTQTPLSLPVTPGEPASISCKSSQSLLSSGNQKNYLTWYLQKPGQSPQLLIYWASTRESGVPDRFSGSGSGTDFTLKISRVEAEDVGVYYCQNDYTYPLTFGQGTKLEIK"
observed_measurement = 202


Now let's try a different one.
Name the recorded T½ Max (seconds), coagulation of human plasma of the item M42 (antibody, V domains shown, complete MAb; FR4 is its own entry; also called H19/L7) VH: QVQLVQSGAEVKKPGSSVKVSCKASGYTFITYWIEWVRQAPGQGLEWMGDILPGSGSTNYNENFKGRVTITADESTSTAYMELSSLRSEDTAVYYCARSGYYGNSGFAYWGQGTLVTVSS VL: DIVMTQTPLSSPVTLGQPASISCKSSQSLLSSGNQKNYLTWLQQRPGQPPRLLIYWASTRESGVPDRFSGSGAGTDFTLKISRVEAEDVGVYYCQNDYTYPLTFGQGTKLEIK in your answer.
202
